These data points were gathered from patent US20190374563A1.

System: multidrug-resistant (MDR) K. pneumoniae isolates (n = 102)
Assay: MIC by microdilution, clinical isolates
Format: cell-based
Conditions: Klebsiella pneumoniae; Total MDR K. pneumoniae isolates (n = 102); read-out: MIC50
Readout Name: MIC50

Study these solved cases before continuing.
{"columns": ["Smiles Structure", "Assayed System", "MIC50"],
 "data": [
  ["CC(C)(O/N=C(\\C(=O)N[C@@H]1C(=O)N2C(C(=O)[O-])=C(C[n+]3ccccc3)CS[C@H]12)c1csc(N)n1)C(=O)O", "multidrug-resistant (MDR) K. pneumoniae isolates (n = 102)", "> 32 µg/mL"],
  ["NCC[C@H](O)C(=O)N[C@@H]1C[C@H](N)[C@@H](O[C@H]2O[C@H](CN)[C@@H](O)[C@H](O)[C@H]2O)[C@H](O)[C@H]1O[C@H]1O[C@H](CO)[C@@H](O)[C@H](N)[C@H]1O", "multidrug-resistant (MDR) K. pneumoniae isolates (n = 102)", "2 µg/mL"],
  ["CN[C@@H]1[C@@H](O)[C@@H](O[C@@H]2[C@@H](O)[C@H](O[C@H]3OC(CNCCO)=CC[C@H]3N)[C@@H](N)C[C@H]2NC(=O)[C@@H](O)CCN)OC[C@]1(C)O", "multidrug-resistant (MDR) K. pneumoniae isolates (n = 102)", "0.5 µg/mL"],
  ["NCC[C@H](O)C(=O)N[C@@H]1C[C@H](N)[C@@H](O[C@H]2O[C@H](CN)CC[C@H]2N)[C@H](O)[C@H]1O[C@H]1O[C@H](CO)[C@@H](O)[C@H](N)[C@H]1O", "multidrug-resistant (MDR) K. pneumoniae isolates (n = 102)", "4 µg/mL"],
  ["NC[C@H]1O[C@H](O[C@H]2[C@H](O)[C@@H](O[C@H]3O[C@H](CO)[C@@H](O)[C@H](N)[C@H]3O)[C@H](N)C[C@@H]2N)[C@H](N)C[C@@H]1O", "multidrug-resistant (MDR) K. pneumoniae isolates (n = 102)", "32 µg/mL"]
]}

Lookup: Which value of MIC50 has been reported for C[C@@H](O)[C@H]1C(=O)N2C(C(=O)O)=C(SCCN=CN)C[C@H]12 in the records?
Found: 0.5 µg/mL

====

Measured MIC AECO001 values are reported for all entries that follow.
Test system: E. coli ATCC 25922 (AECO001)
Test: MIC assay, CLSI broth microdilution
Assay type: cell-based
Set-up: unit not given here
Settings: Table 3; E. coli ATCC25922
The response must contain the number and no unit.

Study these solved cases before continuing.
{"columns": ["Compound", "Assayed System", "Experimental Value"],
 "data": [
  ["CN[C@@H]1[C@@H](O)[C@@H](O[C@@H]2[C@@H](O)[C@H](O[C@H]3OC(CNCCCN)=CC[C@H]3N)[C@@H](N)C[C@H]2NC(=O)[C@@H](O)CCN)OC[C@]1(C)O", "E. coli ATCC 25922 (AECO001)", 1],
  ["CN[C@@H]1C(O)[C@@H](O[C@@H]2[C@@H](O)[C@H](OC3OC(CN)=CC[C@H]3N)[C@@H](N)C[C@H]2NC(=O)[C@@H](O)CN)OC[C@]1(C)O (some centres unmarked)", "E. coli ATCC 25922 (AECO001)", 0.5]
]}

Lookup: Which value of MIC AECO001 has been reported for CN[C@@H]1[C@@H](O)[C@@H](O[C@@H]2C(O)[C@H](O[C@H]3OC(CNCC4CC4)=CC[C@H]3N)[C@@H](N)C[C@H]2N)OC[C@]1(C)O (some centres unmarked) in the records?
Found: 1

Lookup: Note, next up: CN[C@@H]1C(O)[C@@H](O[C@@H]2[C@@H](O)[C@H](OC3OC(CN)=CC[C@H]3N)[C@@H](N)C[C@H]2NC(=O)C2(O)CNC2)OC[C@]1(C)O (some centres unmarked)
Found: 1

Lookup: Note, next up: CN[C@@H]1C(O)[C@@H](O[C@@H]2[C@@H](O)[C@H](OC3OC(CN)=CC[C@H]3N)[C@@H](N)C[C@H]2NC(=O)[C@@H](O)CCN)OC[C@]1(C)O (some centres unmarked)
Found: 0.5

====

Tested on: A. calcoaceticus AACA005, AAC(6′)-I
Assay: MIC assay, aminoglycoside resistant strain
Format: cell-based
Set-up: unit not given beside the values
Settings: Table 3; A. calcoaceticus AAC(6′)-I
Readout Name: MIC AACA005
The response must contain the number and no unit.

Lookup: Which value of MIC AACA005 has been reported for CN[C@@H]1[C@@H](O)[C@@H](O[C@@H]2[C@@H](O)[C@H](O[C@H]3OC(CN)=CC[C@H]3N)[C@@H](N)C[C@H]2N)OC[C@]1(C)O in the records?
Found: 32

Lookup: Note, next up: CN[C@@H]1C(O)[C@@H](O[C@@H]2[C@@H](O)[C@H](OC3OC(CN)=CC[C@H]3N)[C@@H](N)C[C@H]2NC(=O)[C@@H](O)CCN)OC[C@]1(C)O (some centres unmarked)
Found: 16

====

Tested on: E. coli ATCC 25922 (AECO001)
Experiment: MIC assay, CLSI broth microdilution
Type: cell-based
Design: unit not given here
Conditions: Table 3; E. coli ATCC25922
Readout Name: MIC AECO001
The response must contain the number and no unit.

Study these solved cases before continuing.
{"columns": ["Molecule", "Experimental Value"],
 "data": [
  ["CNCC1=CC[C@@H](N)[C@@H](O[C@H]2C(O)[C@@H](O[C@H]3OC[C@](C)(O)[C@H](NC)[C@H]3O)[C@H](N)C[C@@H]2N)O1 (some centres unmarked) [Mono-substituted Compound 1]", 1],
  ["CN[C@@H]1[C@@H](O)[C@@H](O[C@@H]2[C@@H](O)[C@H](O[C@H]3OC(CNCC4CC4)=CC[C@H]3N)[C@@H](N)C[C@H]2NC(=O)[C@@H](O)CCN)OC[C@]1(C)O [Example 18]", 1],
  ["CN[C@@H]1[C@@H](O)[C@@H](O[C@@H]2C(O)[C@H](O[C@H]3OC(CNCCCN)=CC[C@H]3N)[C@@H](N)C[C@H]2N)OC[C@]1(C)O (some centres unmarked) [Mono-substituted Compound 4]", 2],
  ["CN[C@@H]1[C@@H](O)[C@@H](O[C@@H]2[C@@H](O)[C@H](O[C@H]3OC(CNCC4CC4)=CC[C@H]3N)[C@@H](N)C[C@H]2NC(=O)[C@@H](O)CN)OC[C@]1(C)O [Example 13]", 1],
  ["CN[C@@H]1[C@@H](O)[C@@H](O[C@@H]2[C@@H](O)[C@H](O[C@H]3OC(CN)=CC[C@H]3N)[C@@H](N)C[C@H]2N)OC[C@]1(C)O [Sisomicin]", 0.5]
]}

Lookup: Which value of MIC AECO001 has been reported for CN[C@@H]1[C@@H](O)[C@@H](O[C@@H]2C(O)[C@H](O[C@H]3OC(CNCC4CCNCC4)=CC[C@H]3N)[C@@H](N)C[C@H]2N)OC[C@]1(C)O (some centres unmarked) [Mono-substituted Compound 3] in the records?
Found: 0.5

Lookup: Note, next up: CN[C@@H]1[C@@H](O)[C@@H](O[C@@H]2[C@@H](O)[C@H](O[C@H]3OC(CNCC4CCNCC4)=CC[C@H]3N)[C@@H](N)C[C@H]2NC(=O)[C@@H](O)CCN)OC[C@]1(C)O [Example 12]
Found: 1

Lookup: Note, next up: CNCC1=CC[C@@H](N)[C@@H](O[C@H]2[C@H](O)[C@@H](O[C@H]3OC[C@](C)(O)[C@H](NC)[C@H]3O)[C@H](NC(=O)C3(O)CNC3)C[C@@H]2N)O1 [Example 61]
Found: 1

====

Tested on: A. calcoaceticus AACA005, AAC(6′)-I
Experiment: MIC assay, aminoglycoside resistant strain
Format: cell-based
Design: unit not given beside the values
Conditions: Table 3; A. calcoaceticus AAC(6′)-I
Measured MIC AACA005 values are reported for all entries that follow.
The response must contain the number and no unit.

Study these solved cases before continuing.
{"columns": ["Molecule", "MIC AACA005"],
 "data": [
  ["CN[C@@H]1[C@@H](O)[C@@H](O[C@@H]2C(O)[C@H](O[C@H]3OC(CNCC4CC4)=CC[C@H]3N)[C@@H](N)C[C@H]2N)OC[C@]1(C)O (stereo partly drawn)", 4],
  ["CN[C@@H]1[C@@H](O)[C@@H](O[C@@H]2C(O)[C@H](O[C@H]3OC(CNCC4CCNCC4)=CC[C@H]3N)[C@@H](N)C[C@H]2N)OC[C@]1(C)O (stereo partly drawn)", 0.5],
  ["CN[C@@H]1[C@@H](O)[C@@H](O[C@@H]2C(O)[C@H](O[C@H]3OC(CNCCCN)=CC[C@H]3N)[C@@H](N)C[C@H]2N)OC[C@]1(C)O (stereo partly drawn)", 1],
  ["CNCC1=CC[C@@H](N)[C@@H](O[C@H]2C(O)[C@@H](O[C@H]3OC[C@](C)(O)[C@H](NC)[C@H]3O)[C@H](N)C[C@@H]2N)O1 (stereo partly drawn)", 2],
  ["CN[C@@H]1C(O)[C@@H](O[C@@H]2[C@@H](O)[C@H](OC3OC(CN)=CC[C@H]3N)[C@@H](N)C[C@H]2NC(=O)C2(O)CNC2)OC[C@]1(C)O (stereo partly drawn)", 32]
]}

// moving on: another record for MIC AACA005
Lookup: Param readout = MIC AACA005; param system = A. calcoaceticus AACA005, AAC(6′)-I; param query = CN[C@@H]1C(O)[C@@H](O[C@@H]2[C@@H](O)[C@H](OC3OC(CN)=CC[C@H]3N)[C@@H](N)C[C@H]2NC(=O)[C@@H](O)CN)OC[C@]1(C)O (stereo partly drawn) ; response: value
Found: 32
